# Tested on: crypt and surface epithelial cells
# Procedure summary: H2O2 consumption in cell lysates as a function of NaSH concentration
# Assay type: biochemical, mice
# Recorded conditions: cells isolated from untreated mice; read-out: relative IC50 (rate of H2O2 consumption)
Readout name: IC50 (µM)
Answers are plain numbers, in µM.

Could you please provide reported IC50 for [Na+].[SH-] ? Thanks! 25.2

----------
# Tested target: Bovine liver catalase (Bos taurus)
# Construct: Bovine liver catalase was also purchased from Sigma-Aldrich; purchased Sigma-Aldrich; host or cells: bovine liver
# Sequence (P00432 2-527 limits assumed): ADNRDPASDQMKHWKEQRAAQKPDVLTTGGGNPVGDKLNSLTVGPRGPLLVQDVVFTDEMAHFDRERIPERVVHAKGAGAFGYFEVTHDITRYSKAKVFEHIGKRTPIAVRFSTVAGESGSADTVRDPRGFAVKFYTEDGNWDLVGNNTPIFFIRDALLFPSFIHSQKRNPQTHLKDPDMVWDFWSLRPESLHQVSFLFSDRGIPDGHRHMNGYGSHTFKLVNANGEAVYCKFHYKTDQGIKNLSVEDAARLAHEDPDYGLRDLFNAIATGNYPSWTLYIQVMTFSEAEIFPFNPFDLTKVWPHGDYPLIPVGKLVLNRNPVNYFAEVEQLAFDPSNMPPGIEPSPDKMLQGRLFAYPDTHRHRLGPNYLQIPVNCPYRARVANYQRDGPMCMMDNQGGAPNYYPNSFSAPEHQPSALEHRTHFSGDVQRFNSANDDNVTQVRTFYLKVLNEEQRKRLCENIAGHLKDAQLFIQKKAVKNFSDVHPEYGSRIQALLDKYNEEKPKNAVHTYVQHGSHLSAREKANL
# Procedure summary: Catalase activity (H2O2 disappearance at 240 nm) as a function of thiol concentration
# Type: biochemical
# Recorded conditions: iron 55–145 nM, + SOD; read-out: relative IC50 (CAT activity)
Readout name: pIC50
Numbers only, as −log10 of the molar value.

Could you please provide reported pIC50 for N[C@@H](CS)C(=O)O ? Thanks! 4.18

----------
# Tested target: Bovine liver catalase (Bos taurus)
# Construct: Bovine liver catalase was also purchased from Sigma-Aldrich; purchased Sigma-Aldrich; host or cells: bovine liver
# Procedure summary: Catalase activity (H2O2 disappearance at 240 nm) as a function of thiol concentration
# Assay type: biochemical
# Recorded conditions: iron 55–145 nM, + 1 mM DTPA; read-out: relative IC50 (CAT activity)
Readout name: pIC50
Give bare numbers, as −log10 of the molar value.

Please respond with reported pIC50 (system Bovine liver catalase (Bos taurus)) for N[C@@H](CS)C(=O)O . 3.23
